Attribution: patent US20070258982A1

TARGET OR TEST SYSTEM: T1, human IL-22 (human, UniProt Q9GZX6 34-179)
T1 sequence: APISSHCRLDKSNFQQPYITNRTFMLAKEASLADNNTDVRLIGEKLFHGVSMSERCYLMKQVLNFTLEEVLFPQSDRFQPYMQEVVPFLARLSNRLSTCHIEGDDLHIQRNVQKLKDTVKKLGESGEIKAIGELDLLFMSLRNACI
ASSAY REMARKS: cell-based or functional assay
ENDPOINT NAME: IC50 of scFv (pM) in BaF3-IL-22 proliferation assay
Write the numeric value and append its unit.

Examples with their reported IC50 of scFv (pM) in BaF3-IL-22 proliferation assay follow.
>  <BINDER>
166G05 scFv (non-germlined) (scFv) scFv: EVQLVQSGAEVKKPGASVKVSCQASGYTFSDYYIHWVRQTPGQGFEWMGWVNPDTGGTRYAQKFQGWVTMTRDMSNTTAYMELPRLRDDDTAVYYCARDLTGFDPFDIWGQGTLVTVSSGGGGSGGGGSGGGGSAQSVLTQPPSVSVAPGKTATITCGGNNFRNKRVHWYQQRPGQAPVLVIYYDSDRPSGIPERFSGSRSGNTATLTISRVEAGDEADFYCQVWDFLTDSGSFGGGTKLTVLGAAAH

>  <RESULT>
204 pM

$$$$
>  <BINDER>
375G06 scFv (non-germlined) (scFv) scFv: EVQLVQSGAEVKKPGASVKVSCQASGYTFSDYYIHWVRQTPGQGFEWMGWVNPDTGGTRYAQKFQGWVTMTRDMSNTTAYMELPRLRDDDTAVYYCARDLTGYDYYDRWGQGTLVTVSSGGGGSGGGGSGGGGGGSGGGGGGSGGGGSAQSVLTQPPSMSVAPGKTATITCGGNNFRNKRVHWYQQRPGQAPVLVIYYDSDRPSGIPERFSGSRSGNTATLTISRVEAGDEADFYCQVWDFLADEAMFGGGTKLTVLGAAAH

>  <RESULT>
118 pM

$$$$
>  <BINDER>
097D09 scFv (non-germlined) (scFv) scFv: EVQLVESGGGLVTPGGSLRLSCAASGFTFSDYYMSWVRQAPGRGLEWVSAISGSGGSTYYADSVKGRITISRDNAKNSLYLQMSSLRSEDTAVYYCARGLWVWDPLDYWGRGTLVTVSSGGGGSGGGGSGGGGSDIQMTQSPSTLSASIGDRVTITCRASEGIYHWLAWYQQKPGKAPKLLIYKASSLASGAPSRFSGSGFGTDFTLTISSLQPDDFATYYCQQYSEFAWTFGGGTKLEIKRAAAH

>  <RESULT>
298 pM

$$$$
>  <BINDER>
355B06 scFv (non-germlined) (scFv) scFv: EVQLVQSGAEVKKPGASVKVSCQASGYTFTDYYMHWVRQAPGQGLEWVGWINPYTGSAFYAQKFRGRATMTRNTSINTAYMELSRLGSDDTAVYYCAREPEKFGESSGQLWGRGTMVTISSGGGGSGGGGSGGSGSAQAVLTQPSSVSGAPGQRVTISCTGSSSNIGPGYGVHWYQQLPGTAPKLLIYGDSNRPSGVPDRFSGSKSGTSASLAITGLQAEDEADYYCQSYDSGLSGYVFGTGTQLTVLSA

>  <RESULT>
183 pM

$$$$
>  <BINDER>
354A08 scFv (non-germlined) (scFv) scFv: QVQLVQSGAEKKPGASVKVSCKASGYTFTDYYMHWVRQAPGQGLEWVGWINPYTGGAFYAQKFRGRVTMTRDTSINTAYMELSRLGSDDTAVYYCAREPERFGDSTGQVWGRGTMVTVSSGGGGSGGGGSGGSRSAQAVLTQPSSVSGAPRQRVTISCTGSSSNIGAGYGVHWYQQLPGTAPKLLIYGNSNRPSGVPDRFSGSKSGTSASLAITGLQAEDEADYYCYHWDKEQSGYVFGTGTQLTVLSA

>  <RESULT>
219 pM

$$$$

Now examine the next entry.
IC50 of scFv (pM) in BaF3-IL-22 proliferation assay lookup needed for 087B03 scFv (non-germlined) (scFv) scFv: EVQLVESGGGVVRPGGSLRLSCAASGFTFDDYGMNWVRQAPGKGLEWVSGVNWNGGTRDYAASVKGRFTISRDNAKNSLYLQMNSLRAEDTALYYCARGWYSGAAWNMGYWGRGTLVTVSSGGGGSGGGGSGGGGSAQAVLTQPSSVSGSPGQSITISCTGASGDVGAYNFVSWYQQHPGKTPKLIIYDVNKRPSGVSNRFSGSKSSNTASLTISGLQAEDESDYYCSSYTSTFSVVFGGGTKVTVLGAAAH , thanks.
212 pM
